Tested on: MS2 coat protein
experiment notes: apparent KD of MS2 coat protein; designed switch direction (-1 OFF switch, 1 ON switch): 1; higher = weaker reporter binding
condition: Eterna round: R95; input ligand: none
Mark 1 for reported apparent KD of MS2 coat protein of 90 nM or greater; mark -1 for anything smaller.

[
  {
    "sequence entry": "GGAGCCGGCACCGAGGAUAUUCGUAUUAAAACAUGAGGAUCACCCAUGUAGGCCAGAAGGCCUUGGGAGAAGGCGGAUCGGCUCG [Xeonanis - 2] (puzzle: Same State 2)",
    "qualitative label": 1
  },
  {
    "sequence entry": "AACAAUUUAUCUGAGGAUAUCAUGAAAUAAACAUGAGGAUCACCCAUGUGCAGGAAAACUGCAUAUGAGAAGGCAGAUAGAUUGA [salish99_ss2_r3_023] (puzzle: Same State 2)",
    "qualitative label": 1
  },
  {
    "sequence entry": "GACAAUCUAUCUGAGGAUAUCAUGAGAAGAACAUGAGGAUCACCCAUGUGCAGGAAAACUGCAUAUGAGAAGGCAGAUAGAUUGG [Mat - Same State 2 - Mod - D17] (puzzle: Same State 2)",
    "qualitative label": 1
  },
  {
    "sequence entry": "UUCCACGUUGCACAGGAUAUCCAAGCCGUGACAUGAGGAUCACCCAUGUCUAGUAGGCGACUAAGGGAGAAGGGUGUUGUCGUGC [Biuser] (puzzle: Same State 2)",
    "qualitative label": -1
  },
  {
    "sequence entry": "GAGGAUGAUUUACAGGAUAUAUAGGAGAUGACAUGAGGAUCACCCAUGUAGGAGAUAGGAGUGAGAUAGAAGGGUAAGUGAUGUG [JR_SS2_Sub43] (puzzle: Same State 2)",
    "qualitative label": 1
  },
  {
    "sequence entry": "GGAGAGAGAGCGGAGGAUAUUCAAGGAGAGACAUGAGGAUCACCCAUGUAAGAGAGAGAGGAGAGGGAGAAGGCUGAGAGAGAGG [Altered State 2-11 - Jieux - Same State 2] (puzzle: Same State 2)",
    "qualitative label": -1
  },
  {
    "sequence entry": "GGGCCAGCUUGUGCUGGGCCUUCGCUUGCACAUGAGGAUCACCCAUGUCGUGUACAUGCUUGGUGCCCGUCUUUCCC [Photon Torp-15] (puzzle: Sensor for hsa-mir-208a)",
    "qualitative label": 1
  },
  {
    "sequence entry": "GGUCCAGCCUGAGCUGGACAAAAGCAUGUACAUGAGGAUCACCCAUGUUCAUGUACAAGCUUUUUGCUCGUCUUACA [salish99_208a_r3_084] (puzzle: Sensor for hsa-mir-208a)",
    "qualitative label": 1
  }
]

* * *

Tested on: K4 kissing-loop RNA reporter;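 note: bound reporter read as fluorescence of individual clusters on recovered sequencing chips by microscopy, with normalized cluster intensities fitted with a binding model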
experiment notes: apparent KD of K4 kissing-loop reporter; higher = weaker reporter binding
condition: Eterna round: R107; input ligand: tryptophan 2.4 mM
Mark condition met for reported apparent KD of K4 kissing-loop reporter of 200 nM or greater; mark condition not met for anything smaller.

[
  {
    "sequence entry": "UAGGGCCCUGGAGGAUAUGAGUCUAGUGAUGUUAGGCGGUCCAUGCGCGUGGCGCGUUAUGCCCUUUUAGAAGGCCAGGGCCCUA [#2 Exclusion - FMN B Attempt #17 (HarryS)]",
    "qualitative label": "condition not met"
  },
  {
    "sequence entry": "AGAACUGUCUGAGAUACCAGCUAAGGAGUGAUGUUCCUAAGUCCACGAAAGUGGACUCAUAGCCCUUGGCAGCUCAGACAGUUCA [#24 K4 Theophylline B Same State]",
    "qualitative label": "condition met"
  },
  {
    "sequence entry": "GGAUAGGACACAGGAUAUGGGCUAGGCAAGAAUAACUUGUCUAGCAAAUCCAUGAGGAGUGAUGUUCCAGAAGGGUGUCCUAUCG [FmnBX 1 C11+G75]",
    "qualitative label": "condition not met"
  },
  {
    "sequence entry": "GGGUUGAACUGAAGGAGCGAGAAAUAGAAAGUAAGAAGAUAAGCUAGUGAUGUUAGAAAUUCUCAGGUAGGUCGCAGUAAGAAUU [V3]",
    "qualitative label": "condition met"
  },
  {
    "sequence entry": "UUUGUAUAGGGAAGGAGCGUGAAUGAUAAUGAAUAUAGUGAUGUUAUAUAUAAGAAAGAAUCACAGGUAGGUCGCCCGGAGGAGG [SSArgB.J]",
    "qualitative label": "condition met"
  }
]
